System tested: T1, Human EphA2 (Ecto) (Human, UniProt P29317 24-537)
T1 construct: extracellular domain
T1 sequence (P29317 24-537): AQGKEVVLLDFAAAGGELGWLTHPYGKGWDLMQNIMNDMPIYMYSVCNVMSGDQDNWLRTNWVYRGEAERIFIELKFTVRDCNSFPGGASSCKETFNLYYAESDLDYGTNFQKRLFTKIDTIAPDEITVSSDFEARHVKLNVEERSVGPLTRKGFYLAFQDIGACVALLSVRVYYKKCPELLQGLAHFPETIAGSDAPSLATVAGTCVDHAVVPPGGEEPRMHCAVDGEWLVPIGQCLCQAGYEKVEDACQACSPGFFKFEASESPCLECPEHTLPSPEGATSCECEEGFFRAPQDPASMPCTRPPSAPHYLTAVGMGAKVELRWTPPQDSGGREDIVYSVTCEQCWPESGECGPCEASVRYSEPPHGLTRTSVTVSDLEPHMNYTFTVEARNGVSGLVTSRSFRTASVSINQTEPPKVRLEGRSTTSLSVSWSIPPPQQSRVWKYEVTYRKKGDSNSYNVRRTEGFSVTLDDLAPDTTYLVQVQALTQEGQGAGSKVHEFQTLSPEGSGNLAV
Assay comment: FP direct binding
Numbered stars: 1 amine (or outer) side, 2 acyl side, 3 side chain; on linkers, the order of the positions; unused ones are H or OH. Bridge positions count the residues as written; N and C are the ends. Square brackets hold non-standard residues; d marks the D form. Ends that are not written are not given here. 1Nal = N[C@@H](Cc1cccc2ccccc12)C(=O)O; TBMB = c1c(C[*:1])cc(C[*:3])cc1C[*:2]; Gly(cPent) = N[C@H](C(=O)O)C1CCCC1; hArg = N=C(N)NCCCC[C@H](N)C(=O)O; Tle = CC(C)(C)[C@H](N)C(=O)O; AF488 = AlexaFluor488 label; Aib = CC(C)(N)C(=O)O; βAla = NCCC(=O)O; Sar = CNCC(=O)O
Parameter: Kd (nM)
Answers are plain numbers, in nM.

Solved entries:
{"Binder": "{AF488-βAla}-[Sar][Sar][Sar][Sar][Sar][Sar][Sar][Sar][Sar][Sar]H[dD]VPC[Aib][1Nal]G[Aib]F[1Nal]CP[Tle]NR[Aib][dD]C (linker 15-22-29 via TBMB) [Compound 141]", "Kd / nM": 2.65}
{"Binder": "{AF488-βAla}-[Sar][Sar][Sar][Sar][Sar][Sar][Sar][Sar][Sar][Sar]H[dD]VPC[Aib][1Nal]G[Aib]F[1Nal]CP[Tle]N[hArg]P[dD]C (linker 15-22-29 via TBMB) [Compound 140]", "Kd / nM": 2.05}
{"Binder": "{AF488-βAla}-[Sar][Sar][Sar][Sar][Sar][Sar][Sar][Sar][Sar][Sar]H[dD][Gly(cPent)]PC[Aib][1Nal]G[Aib]F[1Nal]CP[Tle]NR[Aib][dD]C (linker 15-22-29 via TBMB) [Compound 146]", "Kd / nM": 2.19}

// below: Kd requested for another binder
**Query** Entry under review: {AF488-βAla}-[Sar][Sar][Sar][Sar][Sar][Sar][Sar][Sar][Sar][Sar]H[dD]VPCP[1Nal]G[Aib]F[1Nal]CP[Tle]NR[Aib][dD]C (linker 15-22-29 via TBMB) [Compound 145] . Reported Kd?
**Result** 2.17

Source of measurements: patent US20200338203A1
